// kon lookup, one value per entry
Target: cyno serum albumin (cyno, UniProt A2V9Z4 25-608)
Sequence (A2V9Z4 25-608 limits assumed): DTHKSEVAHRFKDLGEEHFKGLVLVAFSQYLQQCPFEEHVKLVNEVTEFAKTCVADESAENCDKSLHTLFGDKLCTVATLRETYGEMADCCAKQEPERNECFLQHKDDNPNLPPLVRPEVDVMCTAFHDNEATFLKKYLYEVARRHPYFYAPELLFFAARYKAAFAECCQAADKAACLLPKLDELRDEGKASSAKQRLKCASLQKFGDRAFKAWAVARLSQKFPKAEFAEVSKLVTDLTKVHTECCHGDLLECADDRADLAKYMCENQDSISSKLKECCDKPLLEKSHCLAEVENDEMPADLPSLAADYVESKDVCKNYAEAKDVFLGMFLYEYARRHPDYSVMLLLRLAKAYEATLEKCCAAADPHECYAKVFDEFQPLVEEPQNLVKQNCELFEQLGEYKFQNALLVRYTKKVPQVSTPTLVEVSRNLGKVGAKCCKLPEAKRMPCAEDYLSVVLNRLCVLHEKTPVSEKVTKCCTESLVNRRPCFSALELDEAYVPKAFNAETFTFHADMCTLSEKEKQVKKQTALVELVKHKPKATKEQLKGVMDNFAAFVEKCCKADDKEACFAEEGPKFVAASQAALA
Assay: ProteOn kinetic analysis
Express your answer in M⁻¹ s⁻¹, writing the number without its unit.

Solved cases below.
SEQ ID NO 10 (VHH, also called R at position 30) VHH: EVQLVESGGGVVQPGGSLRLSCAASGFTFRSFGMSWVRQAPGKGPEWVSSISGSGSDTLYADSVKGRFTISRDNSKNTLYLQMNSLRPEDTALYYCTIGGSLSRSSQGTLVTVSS; 910000
SEQ ID NO 127 (VHH, also called T at position 30) VHH: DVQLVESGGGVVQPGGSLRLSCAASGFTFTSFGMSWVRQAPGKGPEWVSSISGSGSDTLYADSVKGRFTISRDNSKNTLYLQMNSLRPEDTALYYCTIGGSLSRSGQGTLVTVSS; 690000
SEQ ID NO 145 (VHH, also called T at position 30) VHH: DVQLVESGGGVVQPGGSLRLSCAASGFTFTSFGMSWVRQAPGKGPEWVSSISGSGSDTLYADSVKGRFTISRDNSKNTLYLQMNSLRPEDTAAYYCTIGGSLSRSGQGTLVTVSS; 640000

Per the records, this binder ( SEQ ID NO 129 (VHH, also called T at position 30) VHH: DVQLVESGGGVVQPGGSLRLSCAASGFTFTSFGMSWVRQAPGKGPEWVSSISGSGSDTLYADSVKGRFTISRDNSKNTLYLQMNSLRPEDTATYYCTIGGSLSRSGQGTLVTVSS ) has kon equal to 640000
